Data provenance is patent US20220119518A1.

- experimental-target: T1, Antigen CD66c (CEACAM6; Sino Biological, Inc.) (UniProt P40199 35-320)
- T1 construct: Bought antigen, coated on the ELISA plate; construct not described; also called CECACAM6 (CD66c) antigen; CD66c antigen
- T1 sequence (looked up): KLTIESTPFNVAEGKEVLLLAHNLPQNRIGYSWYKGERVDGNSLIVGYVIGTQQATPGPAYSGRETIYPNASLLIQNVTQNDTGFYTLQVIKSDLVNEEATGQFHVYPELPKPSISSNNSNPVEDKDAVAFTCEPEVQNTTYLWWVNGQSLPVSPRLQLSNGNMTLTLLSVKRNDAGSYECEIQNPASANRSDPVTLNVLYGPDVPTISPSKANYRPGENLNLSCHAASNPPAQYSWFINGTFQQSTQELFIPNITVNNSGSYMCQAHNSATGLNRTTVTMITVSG
- procedure-details: ELISA, CEACAM6 coated 100 ng/well, antibody at 1.52 ng/ml
value-kind: OD 450 nm (OD 450 nm)
Could you give me the number in OD 450 nm? Just the number is fine.

# OD 450 nm lookup, item recombinant humanized anti-CD66c antibody Protein ID 3058 (Vk8 + VH11) (antibody, human IgG1, V domains shown, also called hu 3058; #86) VH: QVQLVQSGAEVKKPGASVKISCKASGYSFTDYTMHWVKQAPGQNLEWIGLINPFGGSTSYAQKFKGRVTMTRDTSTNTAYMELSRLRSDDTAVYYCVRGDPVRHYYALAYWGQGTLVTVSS VL: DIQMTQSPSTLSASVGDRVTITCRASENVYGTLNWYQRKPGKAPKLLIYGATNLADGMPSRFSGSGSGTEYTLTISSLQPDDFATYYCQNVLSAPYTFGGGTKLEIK
0.53
